All figures here come from patent US20240246946A1.

Reported IC50 values are given for each entry in this list.
- system.name: full length human TREX1 (Homo sapiens)
- Construct: N-terminally His-Tev tagged full length human TREX1; made in house; host or cells: E. coli
- Sequence (Q9NSU2 whole entry): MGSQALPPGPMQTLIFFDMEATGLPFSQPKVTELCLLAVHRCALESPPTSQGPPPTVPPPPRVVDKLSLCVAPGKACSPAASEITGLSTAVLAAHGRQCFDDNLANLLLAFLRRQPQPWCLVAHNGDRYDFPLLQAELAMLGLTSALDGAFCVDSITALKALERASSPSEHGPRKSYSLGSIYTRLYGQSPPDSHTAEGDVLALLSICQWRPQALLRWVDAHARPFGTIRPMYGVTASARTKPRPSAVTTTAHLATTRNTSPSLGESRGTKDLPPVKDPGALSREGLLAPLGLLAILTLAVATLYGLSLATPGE
- protocol.details: hTREX1 Biochemical Assay (fluorescence, dsDNA substrate degradation)
- recorded.conditions: biochemical, read-out: hTREX1 IC50

molecule	system.name	IC50
CC(c1nc(C(=O)Nc2cnoc2)c(O)c(=O)n1C)C(c1cnn(C)c1)c1ccc(F)cc1C#N (single isomer, unassigned) [Example 15 D2E1]	full length human TREX1 (Homo sapiens)	> 10 nM

Specify measured IC50 for CC(c1nc(C(=O)Nc2cnoc2)c(O)c(=O)n1C)C(c1cnn(C)c1)c1ccc(Cl)cc1C#N (single isomer, unassigned) [Example 27 D2E2] .
> 10 nM

Specify measured IC50 for Cc1cnc(C)c(C(c2ccccc2Cl)C(C)c2nc(C(=O)Nc3cnoc3)c(O)c(=O)n2C)n1 (single isomer, unassigned) [Example 120 D2E1] .
> 10 nM

Specify measured IC50 for Cc1nccc(C(c2ccccc2C#N)C(C)c2nc(C(=O)Nc3cnoc3)c(O)c(=O)n2C)n1 (single isomer, unassigned) [Example 83 D1E1] .
< 1 nM

Specify measured IC50 for CC(c1nc(C(=O)Nc2cnoc2)c(O)c(=O)n1C)C(c1cnn(C)c1)c1ccc(C(=O)N(C)C)cc1C#N (single isomer, unassigned) [Example 11 D2E2] .
> 10 nM

Specify measured IC50 for Cc1ccn(C(c2ccccc2Cl)C(C)c2nc(C(=O)Nc3cnoc3)c(O)c(=O)n2C)n1 (single isomer, unassigned) [Example 49 D1E2] .
> 10 nM
